experiment: soluble on expression in E. coli; label from the status in PepcDB or PDB records
MEASURE_NAME: soluble on expression in E. coli

# RESIDUE_SEQUENCE, REPORTED
measured = [
    ("MGFEQLAELRDRLRAQAAQAKPAQTKSSAGRAKKREAVEPGVEAIWRLQRHFPLAFPKSPAAKVPLKQGILQDAQQHLELLGITAEQLKQAIATWCQGSRYWSCMVEDAPRLDLQGQVAGKVTAEQAVYARRQASRRQREQMREKRAKRAQAGGEAPAATEAPTPEAPATEASPEAN", "not soluble"),
    ("MEGEKGSKTRKGDALAREKLLEIAEKIYNQFEEEVVPSVSLPSRTKANLEYSDESDVWVYGDRESERSAKTVKGAFQLLKTTYATDFLINEHLARNRGSTLRELYYISEGWDYAKFKEQGESDRLIEDLEILTSLQREYFHMRPEEDGATMFGPIEITEQTKRGERNIHCQKDVGEGGYQIPFNVENIEFQKHDASMIIAIETGGMYARLMENGFDEAYNAILVHLKGQPARSTRRIIKRMNEELGIPVAVFTDGDPWSYRIYASVAYGAIKSAHLSEFMATPAAKFLGLQPSDIVEYELSTDKLTEQDVSALRSELSDPRFESDYWKEQIQLQLDIGKKAEQQAFAGKGLDFVTEVYLPNRLKEMGMI", "soluble"),
    ("MGSDKIHHHHHHMGFIEVQQQFMDYIRDPSLPLPEGIEPRRMKIYRELFFNNIAGFVSSAFPVLKSVYEDDQWQALVQQFFVSHDCKTPIFVEIAGEFLAFLQHEYQMTEDDPVFMLQLAHYEWLELCVAVAPDTPAAQSINTIELNLHRLCLAACAKVAQYAFDVQHISVDYQPIEPTAQANFFCVFRGADDEVAFLQLTPLSAQVLAYIEQMTHSQQGVTVDAIISWLSEHYPQMPNDTLLSGCLPLLQQLAQKGIVISSIES", "not soluble"),
    ("MEFPDLGAHCSEPSCQRLDFLPLKCDACSGIFCADHVAYAQHHCGSAYQKDIQVPVCPLCNVPVPVARGEPPDRAVGEHIDRDCRSDPAQQKRKIFTNKCERSGCRQREMMKLTCDRCGRNFCIKHRHPLDHECSGEGHQTSRAGLAAISRAQGLASTSTAPSPSRTLPSSSSSSRATPQLPTRTASPVIALQNGLSEDEALQRALELSLAEAKPQVLSSQEEDDLALAQALSASEAEYQQQQAQSRSLKPSNCSLC", "soluble"),
    ("MGSDKIHHHHHHMHPKNAWYVACTADEVADKPLGRQICNEKMVFYRDQNQQVVAVEDFCPHRGAPLSLGYVENGQLVCGYHGLVMGGDGKTASMPGQRVRGFPCNKTFAAIERYGFIWVWPGEREKADPALIHHLEWAVSDEWAYGGGLFHIQCDYRLMIDNLMDLTHETYVHASSIGQKEIDEAPPVTTVEGEEVITARHMENIMPPPFWKMALRGNNLADDVPVDRWQICRFTPPSHVLIEVGVAHAGKGGYHAPHEFKASSIVVDFITPETDTSIWYFWGMARNFKPADEQLTATIREGQHKIFSEDLEMLERQQLNLLQHPHRNLLKLNIDAGGVQSRKILERLIAAEQADTADQIPVAAVK", "not soluble"),
    ("MTYWICITNRENWEVIKRHNVWGVPKKHKNTLSRVKPGDKLVIYVRQEKDKEGNLLEPKIVGIYEVTSEPYVDFSRIFKPHRGGKETYPYRVKIKPIKIGEINFKPLINDLKFIKNKKRWSMHFFGKAMRELPEEDYKLIEKLLL", "soluble"),
]
